test system: MDA-MB-435; experiment: NCI tumour cell line growth inhibition, 48 h; in the data active = GI50 below about 0.43 µM; inactive = the rest
Please answer using one outcome listed in active, inactive

Worked cases, answers included:
INSERT INTO assay_data (compound, group) VALUES
  ('Fc1ccc(-c2nn3ccccc3c2-c2ccncc2)cc1', 'inactive'),
  ('c1ccc(Oc2ccc(Nc3ncc(-c4ccccc4)o3)cc2)cc1', 'inactive'),
  ('Clc1ccc2c(c1)N(C1CCCN(Cc3ccccc3)C1)c1ccccc1S2 (stereo not given)', 'inactive'),
  ('CCN1C(=O)N(CC)C2C1NN=c1s/c(=C3\C(=O)N(C4CCCC4)c4ccccc43)c(=O)n12 (stereo not given)', 'active');

Please turn your attention to the following entry.
Query :: Each compound tested received a call. Report the one for O=C(Nc1cc(F)c(F)cc1C(=O)O)c1ccc(-n2ccnc2)nn1 .
Result :: inactive

* * *

test system: DU-145 prostate; assay: NCI tumour cell line growth inhibition, 48 h; in the data active = GI50 below about 0.43 µM; inactive = the rest
Please answer using one outcome listed in YES = active, NO = inactive

Worked cases, answers included:
INSERT INTO results (compound, group) VALUES
  ('C#CC1(O)C(COP(=O)(O)OCC2OC(n3cc(F)c(=O)[nH]c3=O)CC2O)OC(n2ccc(N)nc2=O)C1O (configuration not stated)', 'YES'),
  ('COc1ccc(S(=O)(=O)Nc2c(/C=C\c3cc(OC)c(OC)c(OC)c3)ccc(OC)c2O)cc1', 'YES'),
  ('CN(C)Cc1ccc(NC(=O)c2cncc(C#Cc3cnc(N)c4ncccc34)c2)cc1F', 'NO'),
  ('CCN(CC)CCN1c2nc3ccccc3cc2Sc2cc3ccccc3nc21', 'NO'),
  ('OC1CCCC2CCC[N-]C12.OC1CCCC2CCC[N-]C12.[O]=[V][OH] (configuration not stated)', 'NO'),
  ('CS(=O)(=O)c1cccc(Nc2ncc3cc(-c4ccccc4Cl)ccc3n2)c1', 'NO');

Query :: Each compound tested received a call. Report the one for O=C(Nc1cc(Cl)ccc1O)c1cccc(Nc2ccnc(C(F)(F)F)c2)c1 .
Result :: NO

* * *

# TGI per entry
system: HOP-92 NSCLC; assay: NCI tumour cell line growth inhibition, 48 h

The following compounds have reported results that may help.
INSERT INTO measurements (compound, measured_result) VALUES
  ('CNC(=O)c1c(F)cccc1Nc1nc(Nc2cc3c(cc2OC)CCN3C(=O)CN(C)C)nc2[nH]ccc12', '1.6 µM'),
  ('COc1cc(/C=C(\NC(=O)c2ccccc2)c2nc3ncncc3[nH]2)cc(OC)c1OC', '> 100 µM'),
  ('COC(=O)CC(C(C(=O)OC)C(=O)OC)N1C(=O)OC(c2ccccc2)C1c1ccccc1 (stereo not given)', '> 100 µM'),
  ('N#CC(C#N)=c1c2ccccc2c(=C(C#N)C#N)c2ccccc12', '88.6 µM'),
  ('CC1=NN2C(c3ccc([N+](=O)[O-])cc3)=CSC2=NC(C)(C)C1', '> 100 µM'),
  ('CN(C)c1ccc(/C=N/c2nc3cc4sc(/N=C/c5ccc(N(C)C)cc5)nc4cc3s2)cc1', '> 100 µM'),
  ('COc1ccc(C2C(C#N)=C(N)Oc3c2sc2c(Br)cccc32)cc1 (stereo not given)', '26.4 µM'),
  ('CCOc1ccc(C(C[N+](=O)[O-])Sc2ccccc2N)cc1 (stereo not given)', '30.9 µM');

Query :: Give the measured TGI of CC(C)OC/N=C(/N)NC#N .
Result :: > 100 µM

Query :: Give the measured TGI of CCc1cc2c(O)c(c1)Cc1cc(CC)cc(c1O)Cc1cc(CC)cc(c1O)Cc1cc(CC)cc(c1O)Cc1cc(CC)cc(c1O)Cc1cc(CC)cc(c1O)Cc1cc(CC)cc(c1O)C2 .
Result :: > 100 µM

Query :: Give the measured TGI of CO[C@]12S[C@@H]3CCCC[C@@]31C(C)(C)C(=O)N2c1ccccc1 .
Result :: > 100 µM
